- Study Target: human GHS-R 1a (Homo sapiens, UniProt Q92847)
- Sequence (Q92847 whole entry): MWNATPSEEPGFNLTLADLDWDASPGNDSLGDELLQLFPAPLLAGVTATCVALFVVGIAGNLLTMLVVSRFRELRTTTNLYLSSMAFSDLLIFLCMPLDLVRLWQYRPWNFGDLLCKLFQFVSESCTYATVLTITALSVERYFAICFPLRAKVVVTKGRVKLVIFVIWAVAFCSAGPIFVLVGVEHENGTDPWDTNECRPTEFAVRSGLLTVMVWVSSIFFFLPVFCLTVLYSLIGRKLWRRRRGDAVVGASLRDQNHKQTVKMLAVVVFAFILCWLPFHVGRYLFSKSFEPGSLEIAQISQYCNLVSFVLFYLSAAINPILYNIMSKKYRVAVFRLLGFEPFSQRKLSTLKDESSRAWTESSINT
- Assay Summary: GHS-R 1a receptor-ligand binding assay (membrane preparations from transfected LLC PK-1 cells)
- Particulars: displacement of 125I-His9-ghrelin (60 pM); membranes of LLC PK-1 cells transfected with human GHS-R 1a; mean of at least two independent experiments in triplicates
Endpoint Name: log10(IC50) (log10 of the value in nM)
# values: log10(IC50), units nM

Past entries and their recorded results:
Molecule: COc1ccc(Cn2c(CCc3ccccc3)nnc2[C@@H](Cc2c[nH]c3ccccc23)NC(=O)C2CNCCN2)cc1 (stereo partly shown)
Study Target: human GHS-R 1a (Homo sapiens, UniProt Q92847)
log10(IC50): 1.73
--
Molecule: COc1ccc(Cn2c(CCc3ccccc3)nnc2[C@@H](Cc2c[nH]c3ccccc23)NC(=O)c2ccncc2)cc1
Study Target: human GHS-R 1a (Homo sapiens, UniProt Q92847)
log10(IC50): 2.08
--
Molecule: COc1ccccc1Cn1c(CCc2c[nH]c3ccccc23)nnc1[C@@H](Cc1c[nH]c2ccccc12)NC(=O)C(C)(C)N
Study Target: human GHS-R 1a (Homo sapiens, UniProt Q92847)
log10(IC50): 1.98
--
Molecule: O=C(N[C@H](Cc1c[nH]c2ccccc12)c1nnc(Cc2ccccc2)n1Cc1ccccn1)c1ccccn1
Study Target: human GHS-R 1a (Homo sapiens, UniProt Q92847)
log10(IC50): 2.32
--
Molecule: Cc1ccc(Cn2c(CCc3ccccc3)nnc2[C@@H](Cc2c[nH]c3ccccc23)NC(=O)C(C)(C)N)cc1
Study Target: human GHS-R 1a (Homo sapiens, UniProt Q92847)
log10(IC50): 2.13
--
Molecule: CC(C)(N)C(=O)N[C@H](Cc1c[nH]c2ccccc12)c1nnc(CCc2c[nH]c3ccccc23)n1Cc1ccccc1
Study Target: human GHS-R 1a (Homo sapiens, UniProt Q92847)
log10(IC50): 1.26

Input: Give log10(IC50) for the following molecule: `Cc1ccc(Cn2c(CCCc3ccccc3)nnc2[C@@H](Cc2c[nH]c3ccccc23)NC(=O)C(C)(C)N)cc1`
Output: 1.48

Reference for the values: patent US8710089B2
